- Organism: Mus musculus
- assayProtocol: Biodistribution of [225Ac]-labeled compound in normal mice kidney after 4 hr
- Format: ADME, organism-based
- assayContext: in vivo
ID/g listing for selected compounds.
assayEndpoint: ID/g

[[record]]
compound = "O=C(O)CN1CCN(CC(=O)O)CCN(CC(=O)O)CCN(CC(=O)O)CCN(CC(=O)O)CC1"
result = "3.47%"

[[record]]
compound = "O=C(O)CN1CCN(CC(=O)O)CCN(CC(=O)O)CCN(CC(=O)O)CCN(CC(=O)O)CCN(CC(=O)O)CC1"
result = "0.71%"

[[record]]
compound = "O=C(O)CN1CCN(CC(=O)O)CCN(CC(=O)O)C(Cc2ccc([N+](=O)[O-])cc2)CN(CC(=O)O)CC1 (centres undefined)"
result = "0.8%"

[[record]]
compound = "O=C(O)CN(CC(=O)O)[C@H](Cc1ccc([N+](=O)[O-])cc1)CN(CC(=O)O)[C@@H]1CCCC[C@H]1N(CC(=O)O)CC(=O)O"
result = "3.36%"

